What MIC was measured for each of the following?
System: E. coli
PROTOCOL TEXT: Broth microdilution MIC
Type: cell-based
SETUP CONDITIONS: Escherichia coli

[Q] Give the reported value of MIC for this record: CCCCCCc1[nH]c(N)nc1CCCCCc1ccccc1 [Compound 19]
[A] 2 µg/mL

[Q] Using known records, supply MIC for CCCc1[nH]c(N)nc1CCCCCc1ccccc1 [Compound 13]
[A] 8 µg/mL

[Q] Answer with reported MIC of Cc1[nH]c(N)nc1CCCCCc1ccccc1 [Compound 11]
[A] 8 µg/mL

[Q] Specify reported MIC for the compound shown: CCCCc1[nH]c(N)nc1CCCCCc1ccccc1 [Compound 14]
[A] 4 µg/mL

[Q] Look up and report measured MIC for this entry: CCc1[nH]c(N)nc1CCCCCc1ccccc1 [Compound 12]
[A] 16 µg/mL

[Q] Identify MIC associated with the compound CCCCCc1[nH]c(N)nc1CCCCCc1ccccc1 [Compound 15]
[A] 2 µg/mL

Entry source: patent US9815794B2
